measured_on: MMP-2 (Gelatinase A) (Homo sapiens, UniProt P08253)
Sequence (P08253 110-660, species assumed): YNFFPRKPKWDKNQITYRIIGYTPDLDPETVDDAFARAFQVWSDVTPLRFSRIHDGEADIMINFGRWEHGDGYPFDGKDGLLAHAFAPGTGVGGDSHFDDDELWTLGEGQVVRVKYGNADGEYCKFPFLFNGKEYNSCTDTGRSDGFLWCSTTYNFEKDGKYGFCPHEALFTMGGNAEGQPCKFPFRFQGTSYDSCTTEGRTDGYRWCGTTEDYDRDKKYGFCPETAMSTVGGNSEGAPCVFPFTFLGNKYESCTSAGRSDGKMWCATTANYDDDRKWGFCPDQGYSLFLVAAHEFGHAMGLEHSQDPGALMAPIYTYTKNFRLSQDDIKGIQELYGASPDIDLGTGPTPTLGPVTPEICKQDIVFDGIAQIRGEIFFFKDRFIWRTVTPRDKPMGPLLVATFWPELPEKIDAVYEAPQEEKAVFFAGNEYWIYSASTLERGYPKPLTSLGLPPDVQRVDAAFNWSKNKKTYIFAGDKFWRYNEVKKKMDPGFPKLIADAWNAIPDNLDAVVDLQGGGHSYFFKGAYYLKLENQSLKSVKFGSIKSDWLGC
pIC50: −log10 of the molar value.
Rule: pIC50 under 6 gives Not satisfied, otherwise Satisfied.

# compound, assigned_class
rows = [
    ("CC(C)C[C@H](NS(=O)(=O)c1ccc2oc3ccccc3c2c1)C(=O)O", "Satisfied"),
]

Q: Reported pIC50 at or above 6? O=C(O)CCC(=O)c1ccc(N2CCN(c3ccccc3)CC2)cc1
A: Not satisfied

Q: Reported pIC50 at or above 6? N[C@@H](CC(=O)c1ccc2oc3ccccc3c2c1)C(=O)O
A: Not satisfied

Q: Check the entry O=C(Cc1ccccc1)N[C@@H](CC(=O)c1ccc2oc3ccccc3c2c1)C(=O)O : does pIC50 equal or exceed 6?
A: Satisfied

Q: Exam item: decide whether the reported pIC50 for CNC(=O)[C@@H](NC(=O)[C@@H](CC(=O)NO)CC(C)C)C(C)(C)C [RO-31-9790, reference compound] is at least 6.
A: Satisfied
